Test system: Escherichia coli
Assay: Induction of DNA photocleavage activity in Escherichia coli pBR322 plasmid assessed as nicked DNA form at 10 uM after 90 mins irradiation at 2.5 mW/cm2 by gel electrophoresis
assay_metric: Activity (%)
Numbers only, in %.

Escherichia coli data for `NCCCCN(CCCN)C(=O)CCCCNC(=O)c1ccc(-c2c3nc(c(-c4ccc(C(=O)NCCCCC(=O)N(CCCN)CCCCN)cc4)c4ccc([nH]4)c(-c4ccc(C(=O)NCCCCC(=O)N(CCCN)CCCCN)cc4)c4nc(c(-c5ccc(C(=O)NCCCCC(=O)N(CCCN)CCCCN)cc5)c5ccc2[nH]5)C=C4)C=C3)cc1` ; its Activity: 50

Escherichia coli data for `C=CC1=C(C)c2cc3[nH]c(cc4nc(cc5[nH]c(cc1n2)c(C)c5CCC(=O)NCCCCC(=O)N(CCCN)CCCCN)C(CCC(=O)NCCCCC(=O)N(CCCN)CCCCN)=C4C)c(C)c3C=C` ; its Activity: 84

Escherichia coli data for `C=CC1=C(C)c2cc3[nH]c(cc4nc(cc5[nH]c(cc1n2)c(C)c5CCC(=O)NCCCCC(=O)N(CCCN)CCCCNCCCN)C(CCC(=O)NCCCCC(=O)N(CCCN)CCCCNCCCN)=C4C)c(C)c3C=C` ; its Activity: 97

Could you now consider this next molecule?
Escherichia coli data for `NCCCNCCCCN(CCCN)C(=O)CCCCNC(=O)c1ccc(-c2c3nc(c(-c4ccc(C(=O)NCCCCC(=O)N(CCCN)CCCCNCCCN)cc4)c4ccc([nH]4)c(-c4ccc(C(=O)NCCCCC(=O)N(CCCN)CCCCNCCCN)cc4)c4nc(c(-c5ccc(C(=O)NCCCCC(=O)N(CCCN)CCCCNCCCN)cc5)c5ccc2[nH]5)C=C4)C=C3)cc1` ; its Activity: 53

====

Tested on: Escherichia coli
Test: Induction of DNA photocleavage activity in Escherichia coli pBR322 plasmid assessed as nicked DNA form at 10 uM after 30 mins irradiation at 2.5 mW/cm2 by gel electrophoresis
Activity strictly less than 40% = true. Otherwise false.

Please let me know if `C=CC1=C(C)c2cc3[nH]c(cc4nc(cc5[nH]c(cc1n2)c(C)c5CCC(=O)NCCCCC(=O)N(CCCN)CCCCN)C(CCC(=O)NCCCCC(=O)N(CCCN)CCCCN)=C4C)c(C)c3C=C` shows Activity below 40%. false

---
Please let me know if `NCCCNCCCCN(CCCN)C(=O)CCCCNC(=O)c1ccc(-c2c3nc(c(-c4ccc(C(=O)NCCCCC(=O)N(CCCN)CCCCNCCCN)cc4)c4ccc([nH]4)c(-c4ccc(C(=O)NCCCCC(=O)N(CCCN)CCCCNCCCN)cc4)c4nc(c(-c5ccc(C(=O)NCCCCC(=O)N(CCCN)CCCCNCCCN)cc5)c5ccc2[nH]5)C=C4)C=C3)cc1` shows Activity below 40%. false

Please let me know if `Cc1cc(C)c(-c2c3nc(c(-c4ccc(C(=O)NCCCCC(=O)N(CCCN)CCCCNCCCN)cc4)c4ccc([nH]4)c(-c4c(C)cc(C)cc4C)c4nc(c(-c5ccc(C(=O)NCCCCC(=O)N(CCCN)CCCCNCCCN)cc5)c5ccc2[nH]5)C=C4)C=C3)c(C)c1` shows Activity below 40%. true

Please let me know if `Cc1cc(C)c(-c2c3nc(c(-c4ccc(C(=O)NCCCCC(=O)N(CCCN)CCCCN)cc4)c4ccc([nH]4)c(-c4c(C)cc(C)cc4C)c4nc(c(-c5ccc(C(=O)NCCCCC(=O)N(CCCN)CCCCN)cc5)c5ccc2[nH]5)C=C4)C=C3)c(C)c1` shows Activity below 40%. true

Please let me know if `C=CC1=C(C)c2cc3[nH]c(cc4nc(cc5[nH]c(cc1n2)c(C)c5CCC(=O)NCCCCC(=O)N(CCCN)CCCCNCCCN)C(CCC(=O)NCCCCC(=O)N(CCCN)CCCCNCCCN)=C4C)c(C)c3C=C` shows Activity below 40%. false

Please let me know if `NCCCCN(CCCN)C(=O)CCCCNC(=O)c1ccc(-c2c3nc(c(-c4ccc(C(=O)NCCCCC(=O)N(CCCN)CCCCN)cc4)c4ccc([nH]4)c(-c4ccc(C(=O)NCCCCC(=O)N(CCCN)CCCCN)cc4)c4nc(c(-c5ccc(C(=O)NCCCCC(=O)N(CCCN)CCCCN)cc5)c5ccc2[nH]5)C=C4)C=C3)cc1` shows Activity below 40%. true
